Parameter: pEC50. Scope: all listed entries.
Biological target: SP174 receptor (Homo sapiens)
Assay: SP174 receptor ligand identification, Ca2+ FLIPR in transfected mammalian cells (description section)
Format: cell-based
Parameters: expressed in transfected cells
Details: values given in the description; SP174 in pcDNA3.1 transfected into mammalian cells; read-out: EC50 for SP174 (agonists)
Description: In order to identify SP174 receptor ligands the SP174 open reading frame was subcloned into the pcDNA3.1 expression vector under the control of the CMV promoter and transfected into mammalian cells. […] The peak increments in Ca^2+ evoked by the test compounds were measured using the Fluorometric Imaging Plate Reader (FLIPR) system.
pEC50: −log10 of the molar value.
Reported Metric: pEC50

[[record]]
molecular_string = "Nc1ncnc2c1ncn2[C@@H]1O[C@H](COP(=O)(O)OP(O)(O)=S)[C@@H](O)[C@H]1O"
reported_metric = "pEC50"
value_observed = 8.10

[[record]]
molecular_string = "Nc1ncnc2c1ncn2[C@@H]1O[C@H](COP(=O)(O)OP(=O)(O)OP(=O)(O)OC[C@H]2O[C@@H](n3cnc4c(N)ncnc43)[C@H](O)[C@@H]2O)[C@@H](O)[C@H]1O"
reported_metric = "pEC50"
value_observed = 8.10

[[record]]
molecular_string = "CSc1nc(N)c2ncn([C@@H]3O[C@H](COP(=O)(O)OP(=O)(O)OP(=O)(O)O)[C@@H](O)[C@H]3O)c2n1"
reported_metric = "pEC50"
value_observed = 8.10

[[record]]
molecular_string = "O=c1[nH]cnc2c1ncn2[C@@H]1O[C@H](COP(=O)(O)OP(=O)(O)O)[C@@H](O)[C@H]1O"
reported_metric = "pEC50"
value_observed = 6.70

[[record]]
molecular_string = "Nc1nc(Cl)nc2c1ncn2[C@@H]1O[C@H](COP(=O)(O)OP(=O)(O)OP(=O)(O)O)[C@@H](O)[C@H]1O"
reported_metric = "pEC50"
value_observed = 8.10

[[record]]
molecular_string = "CSc1nc(N)c2ncn([C@@H]3O[C@H](COP(=O)(O)OP(=O)(O)O)[C@@H](O)[C@H]3O)c2n1"
reported_metric = "pEC50"
value_observed = 9.49

[[record]]
molecular_string = "Nc1ncnc2c1ncn2[C@@H]1O[C@H](COP(=O)(O)OP(=O)(O)O)[C@@H](O)[C@H]1O"
reported_metric = "pEC50"
value_observed = 8.80

[[record]]
molecular_string = "Nc1ncnc2c1ncn2[C@@H]1O[C@H](COP(=O)(O)OP(=O)(O)OP(=O)(O)O)[C@@H](O)[C@H]1O"
reported_metric = "pEC50"
value_observed = 9.49

[[record]]
molecular_string = "Nc1ncnc2c1ncn2[C@@H]1O[C@H](COP(=O)(O)OP(=O)(O)OP(O)(O)=S)[C@@H](O)[C@H]1O"
reported_metric = "pEC50"
value_observed = 8.10


* * *

Biological target: SP174 receptor (Homo sapiens, UniProt Q9BPV8)
Sequence (Q9BPV8 1-333 isoform Q9BPV8-2): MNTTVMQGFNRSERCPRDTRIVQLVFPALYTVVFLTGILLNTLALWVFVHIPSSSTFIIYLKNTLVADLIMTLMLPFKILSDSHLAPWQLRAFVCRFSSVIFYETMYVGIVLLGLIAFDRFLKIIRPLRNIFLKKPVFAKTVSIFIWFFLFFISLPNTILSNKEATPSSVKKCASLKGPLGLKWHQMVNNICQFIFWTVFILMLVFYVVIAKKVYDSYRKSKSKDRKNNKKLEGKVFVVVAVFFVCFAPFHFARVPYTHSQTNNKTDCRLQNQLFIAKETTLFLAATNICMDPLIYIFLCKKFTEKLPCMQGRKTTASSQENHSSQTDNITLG
Experiment: FLIPR assay, HEK293f cells transiently co-transfected with SP174 receptor and chimera G protein Gq/i3
Assay type: cell-based
Design: expressed in transfected cells; host or cells: HEK293f cells (G-418-resistant HEK293), transient, lipofectamine
Conditions: Example 1; HEK293f cells co-transfected with SP174 and Gq/i3
Note to self: EC50 under 80 nM means satisfied, ties and anything higher get not satisfied.

[[record]]
molecular_string = "CSc1nc(N)c2ncn([C@@H]3O[C@H](COP(=O)(O)OP(=O)(O)OP(=O)(O)O)[C@@H](O)[C@H]3O)c2n1"
qualitative_label = "not satisfied"

[[record]]
molecular_string = "O=c1[nH]cnc2c1ncn2[C@@H]1O[C@H](COP(=O)(O)OP(=O)(O)O)[C@@H](O)[C@H]1O"
qualitative_label = "not satisfied"

[[record]]
molecular_string = "Nc1ncnc2c1ncn2[C@@H]1O[C@H](COP(=O)(O)OP(O)(O)=S)[C@@H](O)[C@H]1O"
qualitative_label = "satisfied"

[[record]]
molecular_string = "Nc1nc(Cl)nc2c1ncn2[C@@H]1O[C@H](COP(=O)(O)OP(=O)(O)OP(=O)(O)O)[C@@H](O)[C@H]1O"
qualitative_label = "not satisfied"

[[record]]
molecular_string = "CSc1nc(N)c2ncn([C@@H]3O[C@H](COP(=O)(O)OP(=O)(O)O)[C@@H](O)[C@H]3O)c2n1"
qualitative_label = "satisfied"

